Biological target: T1, factor VIIIa A1/A3C1C2 dimer, wild type (human, UniProt P00451 20-391; P00451 1709-2351)
T1 sequence 1: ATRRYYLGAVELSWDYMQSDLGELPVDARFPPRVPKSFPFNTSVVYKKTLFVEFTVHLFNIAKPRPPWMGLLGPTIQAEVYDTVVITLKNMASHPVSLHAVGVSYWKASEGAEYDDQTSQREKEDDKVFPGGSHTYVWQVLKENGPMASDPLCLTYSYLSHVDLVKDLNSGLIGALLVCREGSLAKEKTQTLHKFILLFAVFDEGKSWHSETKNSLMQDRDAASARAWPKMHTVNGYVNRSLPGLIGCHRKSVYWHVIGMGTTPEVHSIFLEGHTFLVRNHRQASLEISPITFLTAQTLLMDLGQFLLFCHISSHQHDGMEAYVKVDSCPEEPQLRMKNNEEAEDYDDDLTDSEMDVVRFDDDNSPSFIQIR
T1 sequence 2: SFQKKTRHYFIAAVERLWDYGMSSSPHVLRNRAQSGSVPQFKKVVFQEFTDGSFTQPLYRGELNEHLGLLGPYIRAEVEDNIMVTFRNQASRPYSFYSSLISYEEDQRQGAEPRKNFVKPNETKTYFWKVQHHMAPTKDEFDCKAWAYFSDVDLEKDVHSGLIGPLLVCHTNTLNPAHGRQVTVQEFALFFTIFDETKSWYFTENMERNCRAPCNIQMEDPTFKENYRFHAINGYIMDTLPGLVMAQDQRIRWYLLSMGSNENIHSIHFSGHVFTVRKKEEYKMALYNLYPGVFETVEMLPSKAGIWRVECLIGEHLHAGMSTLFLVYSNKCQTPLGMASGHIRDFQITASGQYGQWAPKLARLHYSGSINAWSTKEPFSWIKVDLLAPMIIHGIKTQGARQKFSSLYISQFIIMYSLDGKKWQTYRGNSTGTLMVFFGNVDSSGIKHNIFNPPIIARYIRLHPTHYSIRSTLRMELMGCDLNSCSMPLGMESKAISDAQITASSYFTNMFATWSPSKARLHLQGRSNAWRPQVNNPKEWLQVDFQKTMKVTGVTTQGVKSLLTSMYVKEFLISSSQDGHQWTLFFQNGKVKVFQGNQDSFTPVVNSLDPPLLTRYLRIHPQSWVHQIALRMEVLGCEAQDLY
Test: cell-based or functional assay
Form field: Decay rate, Factor VIIIa (1.5 nM factor VIIIa, factor IXa absent) (one value per entry).
readout type: Decay rate, Factor VIIIa (1.5 nM factor VIIIa, factor IXa absent) (min⁻¹)

binder	value reported
factor VIIIa A2 subunit, Asp519Val (other) SVAKKHPKTWVHYIAAEEEDWDYAPLVLAPDDRSYKSQYLNNGPQRIGRKYKKVRFMAYTDETFKTREAIQHESGILGPLLYGEVGDTLLIIFKNQASRPYNIYPHGITDVRPLYSRRLPKGVKHLKDFPILPGEIFKYKWTVTVEVGPTKSDPRCLTRYYSSFVNMERDLASGLIGPLLICYKESVDQRGNQIMSDKRNVILFSVFDENRSWYLTENIQRFLPNPAGVQLEDPEFQASNIMHSINGYVFDSLQLSVCLHEVAYWYILSIGAQTDFLSVFFSGYTFKHKMVYEDTLTLFPFSGETVFMSMENPGLWILGCHNSDFRNRGMTALLKVSSCDKNTGDYYEDSYEDISAYLLSKNNAIEPR	0.0836
factor VIIIa A2 subunit, D519A and E665A (other) SVAKKHPKTWVHYIAAEEEDWDYAPLVLAPDDRSYKSQYLNNGPQRIGRKYKKVRFMAYTDETFKTREAIQHESGILGPLLYGEVGDTLLIIFKNQASRPYNIYPHGITDVRPLYSRRLPKGVKHLKDFPILPGEIFKYKWTVTVEAGPTKSDPRCLTRYYSSFVNMERDLASGLIGPLLICYKESVDQRGNQIMSDKRNVILFSVFDENRSWYLTENIQRFLPNPAGVQLEDPEFQASNIMHSINGYVFDSLQLSVCLHEVAYWYILSIGAQTDFLSVFFSGYTFKHKMVYADTLTLFPFSGETVFMSMENPGLWILGCHNSDFRNRGMTALLKVSSCDKNTGDYYEDSYEDISAYLLSKNNAIEPR	0.0352
factor VIIIa A2 subunit, Glu665Ala (other) SVAKKHPKTWVHYIAAEEEDWDYAPLVLAPDDRSYKSQYLNNGPQRIGRKYKKVRFMAYTDETFKTREAIQHESGILGPLLYGEVGDTLLIIFKNQASRPYNIYPHGITDVRPLYSRRLPKGVKHLKDFPILPGEIFKYKWTVTVEDGPTKSDPRCLTRYYSSFVNMERDLASGLIGPLLICYKESVDQRGNQIMSDKRNVILFSVFDENRSWYLTENIQRFLPNPAGVQLEDPEFQASNIMHSINGYVFDSLQLSVCLHEVAYWYILSIGAQTDFLSVFFSGYTFKHKMVYADTLTLFPFSGETVFMSMENPGLWILGCHNSDFRNRGMTALLKVSSCDKNTGDYYEDSYEDISAYLLSKNNAIEPR	0.0834

All figures here come from patent US20090118184A1.
